Test: FRG1 promoter luciferase signal modulators, primary screen, FRG1 inhibition for FSHD, cell-based, C2C12 myotubes, firefly/Renilla luciferase, luminescence (AID 1084)
Settings: higher = more signal, called active from +8 up or from −8 down
Mark false (0) for z-score values under -1, and true (1) for everything at or above.

compound: COC(=O)[C@@]1(CCS(=O)(=O)c2ccccc2)N=C(c2ccc(OCCCO)cc2)O[C@H]1c1ccccc1CN=[N+]=[N-]
groupLabel: false (0)

compound: C=CCN1C(=O)[C@]2(O[C@H](CCn3cc([C@H](O)c4ccccc4)nn3)[C@@H]([Si](C)(C)c3ccc(OC)cc3)[C@@H]2C)c2cc(N3CCC3=O)ccc21
groupLabel: false (0)

compound: COc1cc2c(cc1O)C(C1CC1)N(Cc1sc3ccccc3c1Cl)CC2 (configuration not stated)
groupLabel: true (1)

compound: Cc1ccc([C@@H]2C[C@@H](Sc3ccccc3)[C@H](C(=O)O)CN2S(=O)(=O)c2ccc(C)cc2)cc1
groupLabel: false (0)

compound: COCCOC(=O)N1C(=O)[C@@]2(c3cc(C#Cc4ccc(OC)cc4)ccc31)[C@H](c1ccc(OCCO)cc1)N1[C@H](c3ccccc3)[C@H](c3ccccc3)OC(=O)[C@H]1[C@@H]2C(=O)N1CCN(c2ncccn2)CC1
groupLabel: true (1)

compound: C=C(COC)/C(=C/C[C@@H](OC(=O)c1ccncc1)c1ccc(CO)o1)c1cc(C(=O)OC)ccc1OC
groupLabel: false (0)

compound: Cc1nc2cc(Br)ccc2c(=O)o1
groupLabel: true (1)

---

Biological target: Follistatin-related protein 3 (Homo sapiens)
Experiment: FSTL3 binders on small-molecule microarrays, primary screen, biochemical, small-molecule microarray, 635 nm fluorescence (AID 1105);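 also: score merges emission near 667 nm and signal to noise per printed spot across three slides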
Settings: FSTL3 binding, higher = more signal
observable: composite z-score

molecule: CC(C)C(O)C1C=CC2C(=O)N(c3ccccc3)C(=O)C2N1Nc1ccc([N+](=O)[O-])cc1 (stereo not given)
observable: composite z-score
endpointResult: 0.29
//
molecule: CC(C)c1ccc(NN2C(C(O)c3ccc(B(O)O)cc3)C=CC3C(=O)N(c4ccccc4)C(=O)C32)cc1 (stereo not given)
observable: composite z-score
endpointResult: 1.38
//
molecule: COc1cc2c(cc1O)C(C1CC1)N(Cc1sc3ccccc3c1Cl)CC2 (stereo not given)
observable: composite z-score
endpointResult: -0.05
//
molecule: COC(=O)[C@@]1(Cc2ccc(OC)cc2)[C@H]2c3cc(C(=O)N4CCCC4)n(Cc4ccc(O)c(OC)c4)c3C[C@H]2CN1C(=O)c1ccccc1
observable: composite z-score
endpointResult: 0.282
//
molecule: Cc1ccc(S[C@]2(C(=O)NCCCN(C)C)CC(=O)N(Cc3cc(C(F)(F)F)cc(C(F)(F)F)c3)[C@@H]2c2ccc(CO)cc2)cc1
observable: composite z-score
endpointResult: 0.259
//
molecule: COC(=O)C[C@H]1O[C@]2(C(=O)N(C)c3ccccc32)[C@@H](C)[C@@H]1[Si](C)(C)F
observable: composite z-score
endpointResult: 0.774
//
molecule: COCC(=C=CC[C@@H](O)c1cccc(OCCO)c1)C[C@@H](O)c1ccccn1
observable: composite z-score
endpointResult: 0.167
//
molecule: O=C1NC(=O)C2C1C=CC(C(O)c1cccs1)N2Nc1ccc(Cl)cc1Cl (stereo not given)
observable: composite z-score
endpointResult: -0.375
//
molecule: C=CC[C@]1(C(=O)NCCCOC)N=C(c2ccc(OCCCO)cc2)O[C@H]1c1ccccc1CN=[N+]=[N-]
observable: composite z-score
endpointResult: 0.612
//
molecule: C=C(C(=O)CC[C@@H](OC(=O)c1cccnc1)c1ccccc1OCCO)C(C)C
observable: composite z-score
endpointResult: 0.401
//
molecule: CO[C@H]1O[C@H](CO)[C@@H](OC(=O)Nc2cccc(F)c2)[C@H](OC(=O)Nc2ccccc2)[C@@H]1OC(=O)Nc1ccccc1
observable: composite z-score
endpointResult: 1.2
//
molecule: C=CCOC(=O)[C@H]1[C@@H]2C(=O)O[C@@H](c3ccccc3)[C@@H](c3ccccc3)N2[C@@H](c2ccc(OCCOC(=O)[C@H]3C[C@H]4C(=O)N[C@@H](CCCCNC(C)=O)C(=O)N4[C@H]3c3ccc(O)cc3)cc2)[C@]12C(=O)Nc1ccc(I)cc12
observable: composite z-score
endpointResult: 1.26
//
molecule: CCCc1cc2c(n1Cc1cc(F)cc(F)c1)C(C)C1CN(C(=O)c3ccccc3)C(C)(C(=O)OC)C21 (stereo not given)
observable: composite z-score
endpointResult: 0.899
//
molecule: NC(=O)[C@@H]1[C@H]2C(=O)O[C@H](c3ccccc3)[C@H](c3ccccc3)N2[C@H](c2ccc(O)cc2)[C@@]12C(=O)Nc1ccccc12
observable: composite z-score
endpointResult: -1.06
//
molecule: O=C1C[C@@](C(=O)NCCN2CCOCC2)(c2ccc([N+](=O)[O-])cc2)[C@@H](c2ccc(CO)cc2)N1CC12CC3CC(CC(C3)C1)C2
observable: composite z-score
endpointResult: 1.3

---

Assay: small-molecule binders of probe aInhba, primary screen, biochemical, small-molecule microarray, 635/667 nm fluorescence (AID 1148);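 also: score merges 667nm spot fluorescence with signal-to-noise for antibody binding to printed compounds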
Conditions: higher = more signal

compound: COc1cc2c(cc1OC)CN(C(=O)[C@H]1[C@@H]3C(=O)O[C@@H](c4ccccc4)[C@@H](c4ccccc4)N3[C@@H](c3ccc(O)cc3)[C@]13C(=O)Nc1ccc(C#CCCO)cc13)CC2
composite z-score: -0.0405

compound: CO[C@H]1O[C@H](CO)[C@@H](OC(=O)Nc2ccc(C(F)(F)F)cc2)[C@H](OC(=O)Nc2ccc3c(c2)OCO3)[C@@H]1OC(=O)Nc1ccc2c(c1)OCO2
composite z-score: -0.157

compound: COc1ccc([Si](C)(C)[C@H]2[C@H](CCO)O[C@@]3(C(=O)N(Cc4ccc(N(C=O)c5ccccc5)cc4)c4ccccc43)[C@@H]2C)cc1
composite z-score: -0.157

compound: O=C(OCc1ccccc1)C1=CCC2c3[nH]c4ccccc4c3C(=O)C1N2S(=O)(=O)c1ccccc1[N+](=O)[O-] (configuration not stated)
composite z-score: 0.11

compound: COC(=O)[C@@]1(Cc2ccc(OC)cc2)[C@H]2c3cc(C(=O)N(C)C)n(CCc4ccccn4)c3C[C@H]2CN1C(=O)c1ccccc1
composite z-score: 1.17

compound: CCOC(=O)C[C@H]1[C@H](OC(=O)c2ccc(-c3ccccc3)cc2)[C@@H](NC(=O)Cc2ccc(OC)cc2)c2cc(OCCCO)ccc2N1C(=O)c1ccccc1
composite z-score: -0.0645

compound: O=C1C2C=CC(C(O)Cc3ccccc3)N(n3cnnc3)C2C(=O)N1Cc1ccccc1 (configuration not stated)
composite z-score: -0.0118

---

Each entry below carries its reported composite z-score.
Test system: Plasmodium falciparum Sir2 (PF13_0152, Sir2A)
Assay: pfSir2 binders on small-molecule microarrays, primary screen, biochemical, small-molecule microarray, 635 nm fluorescence (AID 1098);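 also: score merges spot fluorescence intensity with its signal-to-noise ratio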
Settings: small-molecule microarray binding, fluorescence 635 nm; higher = more signal

smilesRepr: COCCOC(=O)N1C(=O)[C@@]2(c3cc(C#CCNC(N)=O)ccc31)[C@H](C(=O)N1CCN(c3ncccn3)CC1)[C@H]1C(=O)O[C@H](c3ccccc3)[C@H](c3ccccc3)N1[C@@H]2c1ccc(OCCO)cc1
composite z-score: 1.08
//
smilesRepr: C=CCNC(=O)[C@H]1[C@@H]2C(=O)O[C@@H](c3ccccc3)[C@@H](c3ccccc3)N2[C@@H](c2ccccc2OCCO)[C@]12C(=O)Nc1ccc(C#CCCO)cc12
composite z-score: 0.932
//
smilesRepr: COCCOC(=O)N1C(=O)[C@@]2(c3cc(C#Cc4ccc(OC)cc4)ccc31)[C@H](c1ccc(O)cc1)N1[C@H](c3ccccc3)[C@H](c3ccccc3)OC(=O)[C@H]1[C@@H]2C(=O)N1CCc2cc(OC)c(OC)cc2C1
composite z-score: 0.888
//
smilesRepr: O=C1O[C@H](c2ccccc2)[C@H](c2ccccc2)N2[C@H]1[C@@H](C(=O)N1CCCCCCC1)[C@]1(C(=O)Nc3ccc(C#CC4=CCCCC4)cc31)[C@H]2c1ccc(OCCO)cc1
composite z-score: 1.87
//
smilesRepr: C=C(COC)/C(=C/C[C@@H](OC(C)=O)c1ccc(OCCO)cc1)c1cnc2ccccc2c1
composite z-score: 1.14
